# Measured Target: NLRP3 (Homo sapiens, UniProt Q96P20)
# Construct: Seed THP-1 cells (25,000 cells/well) containing 1.0 μg/ml LPS in 40 μl of RPMI medium
# Sequence (Q96P20 whole entry): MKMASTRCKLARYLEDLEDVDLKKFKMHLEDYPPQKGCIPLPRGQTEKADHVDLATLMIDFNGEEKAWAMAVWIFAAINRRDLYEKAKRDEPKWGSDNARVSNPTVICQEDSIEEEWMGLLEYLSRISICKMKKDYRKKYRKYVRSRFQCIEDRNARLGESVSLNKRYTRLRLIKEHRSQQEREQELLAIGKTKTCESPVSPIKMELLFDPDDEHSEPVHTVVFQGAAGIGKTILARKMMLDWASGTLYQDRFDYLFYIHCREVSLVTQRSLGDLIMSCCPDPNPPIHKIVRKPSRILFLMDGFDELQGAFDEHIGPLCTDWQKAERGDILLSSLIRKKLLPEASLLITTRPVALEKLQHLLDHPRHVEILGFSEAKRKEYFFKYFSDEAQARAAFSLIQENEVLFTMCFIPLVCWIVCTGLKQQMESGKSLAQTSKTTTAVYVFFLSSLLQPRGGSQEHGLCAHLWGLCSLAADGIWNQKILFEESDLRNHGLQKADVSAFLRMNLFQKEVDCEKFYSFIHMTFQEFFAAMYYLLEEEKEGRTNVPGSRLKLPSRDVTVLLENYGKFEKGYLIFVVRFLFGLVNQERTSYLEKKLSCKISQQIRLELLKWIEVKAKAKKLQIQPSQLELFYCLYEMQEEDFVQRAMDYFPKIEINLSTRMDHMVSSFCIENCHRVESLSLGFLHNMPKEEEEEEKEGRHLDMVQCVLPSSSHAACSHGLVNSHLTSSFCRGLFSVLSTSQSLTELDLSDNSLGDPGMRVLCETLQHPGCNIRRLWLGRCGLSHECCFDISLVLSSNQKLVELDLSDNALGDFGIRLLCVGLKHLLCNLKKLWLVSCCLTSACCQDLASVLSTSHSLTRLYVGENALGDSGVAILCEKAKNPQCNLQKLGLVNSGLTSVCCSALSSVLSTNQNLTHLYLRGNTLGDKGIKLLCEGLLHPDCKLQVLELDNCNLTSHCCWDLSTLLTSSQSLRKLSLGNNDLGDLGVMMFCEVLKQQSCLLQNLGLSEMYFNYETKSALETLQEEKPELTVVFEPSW
# Procedure Text: THP-1 Cells Pyroptosis Assay
# Setup Conditions: THP-1 cells with 1.0 μg/ml LPS; compound 3 hours; nigericin 5 μM 1 hr; resazurin readout
Structures can show the parent of a compound that is named as a salt.

[
  {
    "Compound": "CNC1(c2nc3nc(-c4c(C)cc(C(F)(F)F)cc4O)ccc3o2)CCOCC1",
    "IC50 / nM": 505
  },
  {
    "Compound": "CCN1C[C@@H](O)C[C@@H](Nc2nc3nc(-c4c(C)cc(Cl)cc4O)ccc3o2)C1",
    "IC50 / nM": 1.9
  },
  {
    "Compound": "Cc1ccc(C)c(-c2ccc3oc(N[C@@H]4CCCN(C)C4)nc3n2)c1O",
    "IC50 / nM": 2.7
  },
  {
    "Compound": "CCN1C[C@@H](O)C[C@@H](Nc2nc3nc(-c4c(C)cc(C#N)cc4O)ccc3o2)C1 [Example 28, formic acid salt]",
    "IC50 / nM": 4.6
  },
  {
    "Compound": "CCCN1CCC[C@@H](Nc2nc3nc(-c4c(C)cc(Cl)cc4O)ccc3o2)C1",
    "IC50 / nM": 1
  },
  {
    "Compound": "Cc1cc(Cl)cc(O)c1-c1ccc2oc(C3CCC(=O)NC3)nc2n1 (stereo not drawn)",
    "IC50 / nM": 30
  }
]
